# assayRemarks: NCI Yeast Anticancer Drug Screen. Data for the cln2 rad14 strain (AID 165);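 further: 0% = growth equal to vehicle treated cultures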
# settings: S. cerevisiae cln2 rad14 strain, at 50.0 µM, active compounds read high
The panel holds about 79,000 compounds, 15% with a hit somewhere; the sample as a whole holds those more often.
measurementKind: growth inhibition (%)
Provide only the numeric value, understood in %.

compound=CCC[CH2][Sn]([CH2]CCC)([O]C(=O)c1ccc(C)c(N)c1)[O]C(=O)c1ccc(C)c(N)c1 measurementkind="growth inhibition" measurednumber=91.3
compound=Cc1ccc(C(=O)/C(Cl)=N/O)cc1 measurementkind="growth inhibition" measurednumber=78.7
compound="N#CC(c1c(Cl)cccc1N1CCCCC1)N1CCCCC1 (configuration not stated)" measurementkind="growth inhibition" measurednumber=80.4
compound="O=C(COc1ccc(Br)cc1Br)N1N=C(c2ccc([N+](=O)[O-])o2)CC1(O)c1ccccc1 (configuration not stated)" measurementkind="growth inhibition" measurednumber=76.2
compound=O=C(CCBr)NC(=O)Oc1cccc2ccccc12 measurementkind="growth inhibition" measurednumber=28.1
compound="C[Si](C)(C)CC(c1ccccc1)C(O)c1ccccc1 (configuration not stated)" measurementkind="growth inhibition" measurednumber=93.9
compound=Cc1ccccc1CN(C)CCO measurementkind="growth inhibition" measurednumber=56.8
compound=N/C(=N\OC(=O)Nc1ccccc1)c1ccccc1 measurementkind="growth inhibition" measurednumber=32.2
compound="CCCCCCCCCCCCCCC(O)C(=O)O (configuration not stated)" measurementkind="growth inhibition" measurednumber=11.4
compound=c1ccc2cc3c(ccc4cccc[n+]43)cc2c1 measurementkind="growth inhibition" measurednumber=71.5

-- ask Retrieve growth inhibition measured for COc1cccc(NC(=S)NC(Cc2ccccc2)c2ccccc2)c1 (configuration not stated) and print it.
-- reply 70

-- ask Write down growth inhibition measured for item O=[N+]([O-])/C=C\c1csc2ccccc12
-- reply 99.3

---

# assayRemarks: NCI Yeast Anticancer Drug Screen. Data for the cln2 rad14 strain (AID 165);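 further: 0% = growth equal to vehicle treated cultures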
# settings: S. cerevisiae cln2 rad14 strain, at 50.0 µM (retest, dose inferred, filed as 5.0)
About 79,000 compounds went through this panel and 15% of them were active in at least one assay; those are over-represented in the sample as a whole. Calls of active or inactive are those of the source. No stated cut-off is given here; in the data, active means growth inhibition above about 70%; inactive means the rest.
Give your call using only these classes: active, inactive

Before answering, review these 3 worked examples.
compound=Cc1cc(N)cc(C)c1-c1c(N)cc(Br)cc1Br label=inactive
compound=O=C(CCBr)NC(=O)Oc1cccc2ccccc12 label=inactive
compound=NC(=S)NNCCC(=O)Nc1ccccc1C(F)(F)F label=inactive

-- ask Please share the test call associated with CCOC(=O)C(CC)(CCc1ccccc1[N+](=O)[O-])C(=O)OCC .
-- reply inactive

-- ask For this compound, state the assay outcome: OC1c2ccccc2C2(O)C1C(c1ccccc1)C(c1ccccc1)C2(O)c1ccccc1 (stereo unspecified)
-- reply active

-- ask Test call, this compound: C=C1CC2(C[C@@H](c3ccccc3)O[C@@H](c3ccccc3)C2)OC1=O (stereo partly specified)
-- reply active

---

# assayRemarks: NCI Yeast Anticancer Drug Screen. Data for the sgs1 mgt1 strain (AID 161);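 further: 0% = growth of cultures given vehicle only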
# settings: S. cerevisiae sgs1 mgt1 strain, at 50.0 µM (retest, dose inferred, filed as 5.0), active compounds read high
The panel holds about 79,000 compounds, 15% with a hit somewhere; the sample as a whole holds those more often.
Reported growth inhibition is given for each of the following molecules.
Please give a number only; it is taken to be in %.

Some solved cases for reference:
molecule=COc1c(I)cc(I)c(O)c1I u=% measurednumber=64
molecule=CS(=O)(=O)OCCN(CCOS(C)(=O)=O)c1ccc(C=Nc2ccc3oc(=O)ccc3c2)cc1 u=% measurednumber=86
molecule=O=C/C=C/c1cc([N+](=O)[O-])ccc1Cl u=% measurednumber=83
molecule=FC(F)(F)c1[nH]nc(-c2ccc(Cl)cc2)c1N=NN1CCOCC1 u=% measurednumber=94

-- ask Complete the entry with growth inhibition for N#CC=Cc1ccc([N+](=O)[O-])s1 (mixture of isomers)
-- reply 99

-- ask Tell us which growth inhibition value is on record for CN(C)c1ccc(/C=C2/Oc3ccc(Cl)cc3C2=O)cc1
-- reply 97

-- ask Could you please provide reported growth inhibition for Oc1c(Cl)cc(Cl)cc1C=Nc1cc(C(F)(F)F)ccc1Cl ? Thanks!
-- reply 100

-- ask Look up and state reported growth inhibition for C/C(=N/Nc1ccc([N+](=O)[O-])cc1[N+](=O)[O-])C(=O)O
-- reply 76

-- ask Tell me growth inhibition reported for CC1COC(=O)O1 (centres undefined)
-- reply 6

-- ask Please report growth inhibition for the following molecule: CSc1ncc2c(n1)-c1ccccc1OC2NC1CC1 (centres undefined)
-- reply 20

---

# assayRemarks: NCI Yeast Anticancer Drug Screen. Data for the rad50 strain (AID 155);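 further: 0% = growth of vehicle-only cultures of the same strain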
# settings: S. cerevisiae rad50 strain growth inhibition; at 50.0 µM; active compounds read high
Compounds without any hit were thinned out: in the full panel of roughly 79,000, 15% have a hit.
measurementKind: growth inhibition (%)
Please respond with the number in % and leave the unit unwritten.

compound=C#CCNC1=CC(=O)CCC1 measurementkind="growth inhibition" u=% measurednumber=-12.1
compound=N#Cc1cc2c(cc1Cl)Sc1nccn1S2(=O)=O measurementkind="growth inhibition" u=% measurednumber=28.4
compound=C[n+]1c(/C=C/c2ccccc2Cl)sc2ccccc21 measurementkind="growth inhibition" u=% measurednumber=97.2
compound="CC(C)C(Sc1nc(-c2ccccc2)c(-c2ccccc2)[nH]1)C(=O)NN (centres undefined)" measurementkind="growth inhibition" u=% measurednumber=90.2
compound=CCCN(CCC)C(=O)c1cccc2ccccc12 measurementkind="growth inhibition" u=% measurednumber=6.8
compound="Cc1c(N)nc(C(CC(N)=O)NCC(N)C(N)=O)nc1C(=O)NC(C(=O)NC(C)C(O)C(C)C(=O)NC(C(=O)NCCc1nc(-c2nc(C(=O)NCCCNC(C)c3ccccc3)cs2)cs1)C(C)O)C(OC1OC(CO)C(O)C(O)C1OC1OC(CO)C(O)C(OC(N)=O)C1O)c1cnc[nH]1 (centres undefined)" measurementkind="growth inhibition" u=% measurednumber=92.2

-- ask State its growth inhibition for this compound: Cc1noc(NS(=O)(=O)c2ccc(NC(=S)/N=C/c3c(O)[nH]c(=O)[nH]c3=O)cc2)c1C
-- reply 16.1

-- ask Give the value of growth inhibition reported for the following: CC1NC(=O)OC1(C)c1ccccc1 (centres undefined)
-- reply 50.5

-- ask Please supply the value of reported growth inhibition for the item C=C(CN(C)C)C(=O)c1ccc(Oc2ccccc2)cc1
-- reply 99.2

-- ask Provide one value: measured growth inhibition of CCOC(=O)CN1CCCC(C(=O)CC2(O)C3(Cl)C4(Cl)C5(Cl)C(Cl)(Cl)C6(Cl)C4(Cl)C2(Cl)C6(Cl)C53Cl)C1 (centres undefined)
-- reply 52.5

-- ask Provide only the value of recorded growth inhibition for O=C(NNc1ncccn1)c1ccc(C(=O)NNc2ncccn2)cc1
-- reply 2.75

-- ask Provide one value: measured growth inhibition of CC1(C)CC(=O)C(C=NC(=S)c2ccccc2)=C(O)C1
-- reply -43.3

-- ask Entry O=C(OCCCN1CCCC1)C(c1ccccc1)C1CCCCC1 (centres undefined) needs its growth inhibition filled in; supply it.
-- reply 63.8

-- ask Please supply the value of reported growth inhibition for the item O=C1C(=O)N(c2ccccc2)N=C1N=Nc1ccccc1
-- reply 90.4

-- ask Return reported growth inhibition. Input compound: CC(=O)OC1=C(CC(C)C)C(=O)c2ccccc2C1=O
-- reply 69.2

-- ask Identify growth inhibition associated with the compound CC12CC(Sc3ccccc3N1)c1ccccc1O2 (centres undefined)
-- reply 42.2

-- ask Let me know recorded growth inhibition for CCCCCCCCN/N=C(/C)CCCCCO , thanks.
-- reply -14.2

---

# assayRemarks: NCI Yeast Anticancer Drug Screen. Data for the mec2-1 strain (AID 157)
# settings: S. cerevisiae mec2-1 strain, at 5.0 µM (retest, dose inferred, filed as 0.5), active compounds read high
Compounds without any hit were thinned out: in the full panel of roughly 79,000, 15% have a hit.
measurementKind: growth inhibition (%)
Value expressed in %; do not type the unit.

Previously resolved entries follow.
compound="N#CC(CC(=O)O)C(c1cccc2ccccc12)c1cccc2ccccc12 (stereo not given)" u=% measurednumber=17
compound=CC(=O)Nc1n[n+]([O-])c2cc(C)ccc2[n+]1[O-] u=% measurednumber=96
compound="C/C=C(\\C)[C@H](O)C(COCc1ccccc1)NS(=O)(=O)c1ccc(C)cc1 (stereo not given in full)" u=% measurednumber=-3
compound="C=C1C(=O)C23C(O)C1CC[C@H]2C12CCCC(C)(COC(C)=O)[C@H]1[C@H](O)[C@]3(O)OC2 (stereo not given in full)" u=% measurednumber=26
compound=COc1cccc(/C=N/N(C)C)c1O u=% measurednumber=-6

-- ask For the compound CCS(=O)(=O)/C=C\S(=O)(=O)CC , give its measured growth inhibition value.
-- reply -52

-- ask Supply growth inhibition value. Item: Cc1nc(C(N)=S)sc1C(=O)C/C(=N/N)C(=O)Nc1cccc(Cl)c1C
-- reply -5

-- ask Give recorded growth inhibition. OB1c2ccccc2CCc2ccccc21
-- reply -7

-- ask Return the recorded growth inhibition value; entry: CCCCCOCC(=O)OC
-- reply 0
